Value source: PubChem BioAssay (NCI)

tested on: BT-549 breast; experiment: NCI tumour cell line growth inhibition, 48 h
recorded metric: TGI (µM)
// note: answer is a bare numeric in µM

Which measured TGI value corresponds to COc1cc(C2CC(C)(N3CCCC3)Oc3cc4c(cc32)OCO4)cc(OC)c1OC (stereo unspecified) ?
87.7

Which measured TGI value corresponds to `O=c1[nH]c2ccccc2nc1CBr` ?
21.4

Which measured TGI value corresponds to `O=S(=O)(Cc1nc2ccccc2s1)c1nc2ccccc2s1` ?
34.1

Which measured TGI value corresponds to `O=C(O)[C@@H]1CCCN1Cc1cc2cc3c(cc2c2cc(OCc4ccccc4)ccc12)OCO3` ?
52.9

Which measured TGI value corresponds to `C=C1C(=O)C2=C[C@H]1C[C@H](O)C(=O)[C@]1(C)CCCC(C)(C)[C@H]1C[C@H]2O` ?
5.66

Which measured TGI value corresponds to O=P(Nc1ccccc1)(Oc1ccccc1)N1CCN(c2ccccc2)CC1 (stereo unspecified) ?
29.5

Which measured TGI value corresponds to `O=c1c2c3c(sc2n2c(CCl)nnc2n1Cc1ccccc1)CCCC3` ?
9.44

Which measured TGI value corresponds to `O=c1c2sc3ccccc3c2nnn1-c1ccc(F)c(Cl)c1` ?
95
